B1: OAS1 (parent)
chain: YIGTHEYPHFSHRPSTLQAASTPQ

Variants of: B1
Test: protein stability index of a GFP-peptide fusion (GPS, HEK-293T) (PSI 1-6); higher = more stable;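 note: lentivirally expressed fusions sorted by FACS into six bins by GFP to DsRed ratio, PSI derived from sequencing read proportions per bin multiplied by bin number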
Settings: c terminus: a fixed tail appended
Decision: protein stability index compared against 2; not below it gives Met, below it gives Not met.

Decide: protein stability index of A19E >= 2? Met

Decide: protein stability index of A19V >= 2? Not met

Decide: protein stability index of H12F >= 2? Met

Decide: protein stability index of H12L >= 2? Met

Decide: protein stability index of Q24L >= 2? Met

Decide: protein stability index of G3I >= 2? Met

Decide: protein stability index of Y7Q >= 2? Met

Decide: protein stability index of E6R >= 2? Not met

Decide: protein stability index of H5W >= 2? Met

Decide: protein stability index of Y7D >= 2? Met

Decide: protein stability index of S21F >= 2? Not met

Decide: protein stability index of H9Q >= 2? Met

Decide: protein stability index of P14V >= 2? Met

Decide: protein stability index of T4S >= 2? Not met

Decide: protein stability index of G3F >= 2? Met

Decide: protein stability index of T4W >= 2? Met

Decide: protein stability index of S15D >= 2? Met

Decide: protein stability index of Q24N >= 2? Met

Decide: protein stability index of A20V >= 2? Not met
